# ASSAY SYSTEM: UniProt:Q8VH26
# Sequence (Q8VH26 whole entry): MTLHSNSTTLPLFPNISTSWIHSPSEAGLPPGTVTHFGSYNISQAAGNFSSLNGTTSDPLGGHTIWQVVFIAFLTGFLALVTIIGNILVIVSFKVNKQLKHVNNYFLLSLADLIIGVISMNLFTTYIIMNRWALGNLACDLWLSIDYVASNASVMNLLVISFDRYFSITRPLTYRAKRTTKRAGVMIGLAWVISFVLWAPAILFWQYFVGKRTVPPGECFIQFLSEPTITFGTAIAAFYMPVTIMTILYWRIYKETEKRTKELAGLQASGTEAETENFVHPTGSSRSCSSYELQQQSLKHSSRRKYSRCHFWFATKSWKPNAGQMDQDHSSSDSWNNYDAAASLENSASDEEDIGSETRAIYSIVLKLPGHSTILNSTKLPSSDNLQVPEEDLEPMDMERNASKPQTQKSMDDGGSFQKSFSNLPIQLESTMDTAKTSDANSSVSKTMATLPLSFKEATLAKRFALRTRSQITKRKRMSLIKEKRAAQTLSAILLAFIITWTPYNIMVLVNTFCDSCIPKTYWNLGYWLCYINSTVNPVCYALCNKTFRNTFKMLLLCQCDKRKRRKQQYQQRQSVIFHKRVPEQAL
# ASSAY EXPLANATION: Antagonist affinity evaluated against Muscarinic acetylcholine receptor M3 in isolated guinea pig longitudinal Ileum.
# Assay type: functional, tissue-based
# DETAILS: read-out: pA2 (converted)
Flag rule - Kb less than 20 nM flags Satisfied; the remaining entries get Not satisfied.

Reference set, count: 3
MOL	ASSAY SYSTEM	CATEGORY LABEL
CN(CCCCCCCCN(C)C(=O)CCCCCN(CC(=O)N1c2ccccc2C(=O)Nc2cccnc21)CC(=O)N1c2ccccc2C(=O)Nc2cccnc21)C(=O)CCCCCN(CC(=O)N1c2ccccc2C(=O)Nc2cccnc21)CC(=O)N1c2ccccc2C(=O)Nc2cccnc21	UniProt:Q8VH26	Not satisfied
CN(CCCCCCCCN(C)C(=O)CCCCCN(CC(=O)N1c2ccccc2C(=O)Nc2cccnc21)CC(=O)N1c2ccccc2C(=O)Nc2cccnc21)C(=O)CCCCCNCC(=O)N1c2ccccc2C(=O)Nc2cccnc21	UniProt:Q8VH26	Not satisfied
CN(CCCCCCN)CCCCCCCCN(C)CCCCCCNCCC(=O)N1c2ccccc2C(=O)Nc2cccnc21	UniProt:Q8VH26	Satisfied

Kb under 20 nM? Item: CN(CCCCCCCCN(C)CCCCCCNCC(=O)N1c2ccccc2NC(=O)c2ccccc21)CCCCCCNCC(=O)N1c2ccccc2NC(=O)c2ccccc21
Not satisfied

Kb under 20 nM? Item: CN(CCCCCCCCN(C)C(=O)CCCCCN(CC(=O)N1c2ccccc2C(=O)Nc2cccnc21)CC(=O)N1c2ccccc2C(=O)Nc2cccnc21)C(=O)CCCCCN
Not satisfied

Kb under 20 nM? Item: CN(CCCCCCCCN(C)C(=O)CCCCCNCCCCC(=O)N1c2ccccc2C(=O)Nc2cccnc21)C(=O)CCCCCN
Satisfied

Kb under 20 nM? Item: CN(CCCCCCCCN(C)C(=O)CCCCCNCCCC(=O)N1c2ccccc2C(=O)Nc2cccnc21)C(=O)CCCCCN
Satisfied
